# Test system: MDA-MB-435 melanoma
# run_description: NCI-60 one-dose screen, 48 h
# measurement_context: 10 µM unless noted
The panel holds about 83,000 compounds, 20% with a hit somewhere; the sample as a whole holds those more often. Activity calls are given as the source filed them. How the source made its calls: active means growth percent below 10; inactive means the rest.
Outcomes: active, inactive

[
  {
    "compound": "Cc1cc(NC(=O)Nc2cccc3ccccc23)no1",
    "class_name": "inactive"
  },
  {
    "compound": "Cc1ccc2c(c1)O/C(=C\\c1ccc([N+](=O)[O-])o1)C2=O",
    "class_name": "active"
  },
  {
    "compound": "CC(CCC(=O)O)(NC(=O)c1ccc([N+](=O)[O-])cc1)C(=O)O (stereo unspecified)",
    "class_name": "inactive"
  },
  {
    "compound": "Fc1ccc(-c2nnc(/C=C/c3cn(-c4ccccc4)nc3-c3ccccc3)o2)cc1",
    "class_name": "inactive"
  },
  {
    "compound": "N#Cc1c(N)[nH]c(S)c1C#N",
    "class_name": "inactive"
  },
  {
    "compound": "c1ccc(-n2nnnc2-c2cccc3ccccc23)cc1",
    "class_name": "active"
  },
  {
    "compound": "O=C(Nc1cccc2ccccc12)c1cc2c(cc1Br)OCO2",
    "class_name": "inactive"
  },
  {
    "compound": "O=C(Nc1ccc(Cl)cc1)Nc1ccc(Oc2nncc3ccccc23)cc1",
    "class_name": "active"
  },
  {
    "compound": "CCN(CC)CCOc1ccc(C2=C(c3ccccc3)CCc3cc(OC)ccc32)cc1",
    "class_name": "active"
  },
  {
    "compound": "CCOC(=O)c1cc(-c2cccnc2)nc2c(Cl)cc(Cl)cc12",
    "class_name": "inactive"
  },
  {
    "compound": "COc1ccc(-c2oc3cc(O)c(OC)c(O)c3c(=O)c2OC)cc1O",
    "class_name": "active"
  }
]
